System: OVCAR-5 ovarian
Experiment: NCI-60 one-dose screen, 48 h (100 = growth as untreated, 0 = no growth, -100 = all killed)
Conditions: 10 µM
About 83,000 compounds went through this panel and 20% of them were active in at least one assay; those are over-represented in the sample as a whole.
Endpoint name: growth (%)
Write the number in % without appending the unit.

Reported OVCAR-5 ovarian growth for item N#Cc1ccc(NC(=O)Nc2cccc(C#N)c2)cc1 was 116

Tested system OVCAR-5 ovarian; growth recorded for COc1ccc(C)cc1OC was 114

Hey, OVCAR-5 ovarian data for CC(=O)/C(Cc1ccccc1)=N/O : growth came out at 97.7

Record O=C1C=C(O)C(=O)C=C1O / OVCAR-5 ovarian, growth recorded as 108

For CCCCCCCCCCC1CO1 (stereo not given) on OVCAR-5 ovarian, measured growth was 111
